molecular target: Sox11 (UniProt Q7M6Y2 1-395); assay: EMSA
Sequence (Q7M6Y2 whole entry): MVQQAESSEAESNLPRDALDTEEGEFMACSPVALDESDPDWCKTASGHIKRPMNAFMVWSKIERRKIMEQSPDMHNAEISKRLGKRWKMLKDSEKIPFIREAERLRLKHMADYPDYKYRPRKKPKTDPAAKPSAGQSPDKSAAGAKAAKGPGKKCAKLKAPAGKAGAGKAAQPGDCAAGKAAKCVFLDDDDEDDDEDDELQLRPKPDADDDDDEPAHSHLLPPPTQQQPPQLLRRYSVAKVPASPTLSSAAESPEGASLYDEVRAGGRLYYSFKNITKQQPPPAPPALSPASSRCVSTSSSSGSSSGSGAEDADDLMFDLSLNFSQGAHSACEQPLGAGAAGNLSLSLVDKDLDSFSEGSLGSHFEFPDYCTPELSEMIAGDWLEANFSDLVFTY

| Binder | binding result |
| --- | --- |
| Sox2/Prox1 DNA (dsDNA) DNA 1: CTAGCATTGTCTGGG DNA 2: CCCAGACAATGCTAG | binds |
| CAGCUUUUCCCUGUAGUCAUGAAUG (ssRNA) [Dnmt3b RNA] | no binding |
| GCGGCAAGCCCAUACUCGCGUUCAA (ssRNA) [12th-15 RNA] | no binding |
| CCUGCAGCUCAUGACCCCUGCUUCC (ssRNA) [Dicer1 RNA] | no binding |

Measured values drawn from paper PMC7144947 for this set.
